# Tested on: human red blood cells
# Parameters: unit not given beside the values
Non-standard residues stand in square brackets, D forms with d. Residues, ends and D or L forms follow the SMILES beside them. Dip = N[C@H](C(=O)O)C(c1ccccc1)c1ccccc1; d2Nal = N[C@H](Cc1ccc2ccccc2c1)C(=O)O; Dab = NCC[C@H](N)C(=O)O
parameterMeasured: HC50
Provide a numeric answer; units are not to be included.

Some compounds with recorded HC50:
N=C(N)NCCC[C@@H]1NC(=O)[C@H](CCN)NC(=O)[C@@H](Cc2ccc3ccccc3c2)NC(=O)[C@@H](Cc2ccc3ccccc3c2)NC(=O)[C@H](Cc2c[nH]c3ccccc23)NC(=O)[C@@H](CCCNC(=N)N)NC(=O)[C@H](CCCNC(=N)N)NC(=O)[C@@H](CCCNC(=N)N)NC1=O [IFX-056, c[Dab-Arg-arg-Arg-arg-Trp-naI-naI]] (cyclo([Dab]R[dR]R[dR]W[d2Nal][d2Nal])) = 415
N=C(N)NCCC[C@@H]1NC(=O)[C@H](CCN)NC(=O)[C@@H](CCCNC(=N)N)NC(=O)[C@H](CCCNC(=N)N)NC(=O)[C@@H](Cc2ccc3ccccc3c2)NC(=O)[C@@H](Cc2ccc3ccccc3c2)NC(=O)[C@H](Cc2c[nH]c3ccccc23)NC(=O)[C@H](CCN)NC(=O)[C@@H](CCCNC(=N)N)NC1=O [IFX-059, c[Arg-arg-Dab-Arg-arg-Dab-Trp-naI-naI]] (cyclo([Dab]R[dR][Dab]W[d2Nal][d2Nal]R[dR])) = 780

Now consider a different compound.
So what does the record say about HC50 for N=C(N)NCCC[C@@H]1NC(=O)[C@H](CCCNC(=N)N)NC(=O)[C@H](C(c2ccccc2)c2ccccc2)NC(=O)[C@H](C(c2ccccc2)c2ccccc2)NC(=O)[C@H](C(c2ccccc2)c2ccccc2)NC(=O)[C@H](CCCNC(=N)N)NC1=O [IFX-002, c[Arg-Arg-Arg-Dip-Dip-Dip]] (cyclo([Dip][Dip][Dip]RRR)) ?
205
